Reported values: IC50 for IRAK4 (Homo sapiens (Human), UniProt Q9NWZ3), one per item.

Observe how each entry below is paired with its result.
CC(C)Oc1cc2c(OC[C@@H]3CCC(=O)N3)ncc(C#CC3(O)CCNCC3)c2cc1C(N)=O : 0.0149 µM
CCO[C@H]1CC[C@@H](C#Cc2cnc(OC[C@H]3NC(=O)[C@@H](F)[C@H]3CC)c3cc(OC(C)C)c(C(N)=O)cc23)CC1 : 0.463 µM
CC(C)Oc1cc2c(OC[C@@H]3CCC(=O)N3)ncc(C#CC3CCN(C(=O)OC(C)(C)C)CC3)c2cc1C(N)=O : 0.0159 µM
CC(C)Oc1cc2c(OC[C@@H]3CCC(=O)N3)ncc(C#CCN3CCOCC3)c2cc1C(N)=O : 0.0082 µM
COC1(OC)CC(C#Cc2cnc(O[C@@H]3CCCN(C(=O)CC#N)C3)c3cc(OC(C)C)c(C(N)=O)cc23)C1 : 0.01 µM

Okay, next one:
INPUT: Could you tell me which IC50 is on file for `CC(C)Oc1cc2c(OC[C@@H]3CCC(=O)N3)ncc(C#CC3(O)CCN(C)CC3)c2cc1C(N)=O` ?
OUTPUT: 0.0054 µM

====

Reported values: pIC50 for UniProt Q9NWZ3, one per item.
Note on pIC50: it is the negative log10 of concentration, concentration in mol/L.

Observe how each entry below is paired with its result.
CC(C)Oc1cc2c(O[C@@H]3CCCN(C(=O)CC#N)C3)ncc(-c3cnn(C4CCN(C)CC4)c3)c2cc1C(N)=O : 7.72
CC(C)Oc1cc2c(O[C@@H]3CCCN(C(=O)CC#N)C3)ncc(C#CC3CN(C)C3)c2cc1C(N)=O : 8.15
CC(C)Oc1cc2c(OC[C@@H]3CCC(=O)N3)ncc(-c3cnn(CC4CCOCC4)c3)c2cc1C(N)=O : 7.87

INPUT: Identify the measured pIC50 of `CC(C)Oc1cc2c(OC[C@@H]3CCC(=O)N3)ncc(C#C[C@H]3CC[C@@](C)(O)CC3)c2cc1C(N)=O` for UniProt Q9NWZ3.
OUTPUT: 7.94

INPUT: Identify the measured pIC50 of `CC(C)Oc1cc2c(O[C@@H]3CCCNC3)ncc(C#CC3CCOCC3)c2cc1C(N)=O` for UniProt Q9NWZ3.
OUTPUT: 7.04

INPUT: Identify the measured pIC50 of `CC(C)Oc1cc2c(OC[C@@H]3CCC(=O)N3)ncc(-c3cnn(C4CCNCC4)c3)c2cc1C(N)=O` for UniProt Q9NWZ3.
OUTPUT: 7.73

====

Reported values: pIC50 for IRAK4 (Homo sapiens (Human)), one per item.
Note on pIC50: it is the negative log10 of concentration, concentration in mol/L.

CC(C)Oc1cc2c(O[C@@H]3CCCN(C(=O)CC#N)C3)ncc(C#CC3(O)CCNCC3)c2cc1C(N)=O : 7.64
CC(C)Oc1cc2c(O[C@@H]3CCCN(C(=O)CC#N)C3)ncc(C#CC3(O)CCCC3)c2cc1C(N)=O : 7.53
CC(C)Oc1cc2c(OC[C@@H]3CCC(=O)N3)ncc(-c3cnn(CCC4CCOCC4)c3)c2cc1C(N)=O : 7.86
CC(C)Oc1cc2c(OC[C@@H]3CC(F)(F)C(=O)N3)ncc(C#CC3CN(C)C3)c2cc1C(N)=O : 8.44

Okay, next one:
INPUT: Could you tell me which pIC50 is on file for `CC(C)Oc1cc2c(OC[C@@H]3CCC(=O)N3)ncc(C#CC3CN(C(C)C)C3)c2cc1C(N)=O` ?
OUTPUT: 8.25
